Where do these numbers come from? They come from ChEMBL document CHEMBL1151010.

measuredOn: Endothelin-1 receptor (Sus scrofa) (UniProt Q29010)
Sequence (Q29010 whole entry): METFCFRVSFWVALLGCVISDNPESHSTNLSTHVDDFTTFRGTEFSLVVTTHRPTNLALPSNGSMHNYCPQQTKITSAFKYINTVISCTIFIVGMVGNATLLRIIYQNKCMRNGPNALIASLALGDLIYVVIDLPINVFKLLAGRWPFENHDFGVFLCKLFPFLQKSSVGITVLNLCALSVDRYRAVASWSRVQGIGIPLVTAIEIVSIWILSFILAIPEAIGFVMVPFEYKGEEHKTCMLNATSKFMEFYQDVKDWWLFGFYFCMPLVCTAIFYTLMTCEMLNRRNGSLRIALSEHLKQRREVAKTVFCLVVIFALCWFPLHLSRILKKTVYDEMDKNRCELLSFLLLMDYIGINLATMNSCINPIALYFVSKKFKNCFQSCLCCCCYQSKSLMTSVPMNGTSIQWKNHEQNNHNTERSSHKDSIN
procedureSummary: Inhibition of endothelin (ET-A) binding to porcine heart membranes
Parameters: concentration or dose not given beside the values
conditionSet: Membrane, concentration not given here
outcomeMeasure: inhibition (%)

I = CC[C@H](C)[C@H](NC(=O)[C@H](C)NC(=O)[C@H](CC(=O)O)NC(=O)[C@H](CC(C)C)NC(=O)[C@H](NC(C)=O)C1c2ccccc2CCc2ccccc21)C(=O)N[C@@H](Cc1c[nH]c2ccccc12)C(=O)O
II = CC[C@H](C)[C@H](NC(=O)[C@H](CCCN=C(N)N)NC(=O)[C@H](CC(=O)O)NC(=O)[C@H](CC(C)C)NC(=O)[C@H](NC(C)=O)C1c2ccccc2CCc2ccccc21)C(=O)N[C@@H](Cc1c[nH]c2ccccc12)C(=O)O
III = CC[C@H](C)[C@H](NC(=O)[C@H](CCC(N)=O)NC(=O)[C@H](CC(=O)O)NC(=O)[C@H](CC(C)C)NC(=O)[C@H](NC(C)=O)C1c2ccccc2CCc2ccccc21)C(=O)N[C@@H](Cc1c[nH]c2ccccc12)C(=O)O
Q. Form: Sort by [inhibition] Order [ ascending ] Answer format: the labels, ordered as requested.
A. II, III, I
(II: 0%, III: 12%, I: 47%)

a = CC[C@H](C)[C@H](NC(=O)[C@H](CC(N)=O)NC(=O)[C@H](CC(=O)O)NC(=O)[C@H](CC(C)C)NC(=O)[C@H](NC(C)=O)C1c2ccccc2CCc2ccccc21)C(=O)N[C@@H](Cc1c[nH]c2ccccc12)C(=O)O
b = CC[C@H](C)[C@H](NC(=O)[C@H](CC(=O)O)NC(=O)[C@H](CC(=O)O)NC(=O)[C@H](CC(C)C)NC(=O)[C@H](NC(C)=O)C1c2ccccc2CCc2ccccc21)C(=O)N[C@@H](Cc1c[nH]c2ccccc12)C(=O)O
Q. Which value of inhibition is numerically greater: that of a or that of b ? Field: selected label. Fill in the label of the entry you choose.
A. a
(a: 41%, b: 0%)

P = CC[C@H](C)[C@H](NC(=O)[C@H](CO)NC(=O)[C@H](CC(=O)O)NC(=O)[C@H](CC(C)C)NC(=O)[C@H](NC(C)=O)C1c2ccccc2CCc2ccccc21)C(=O)N[C@@H](Cc1c[nH]c2ccccc12)C(=O)O
Q = CC[C@H](C)[C@H](NC(=O)[C@H](Cc1ccc(O)cc1)NC(=O)[C@H](CC(=O)O)NC(=O)[C@H](CC(C)C)NC(=O)[C@H](NC(C)=O)C1c2ccccc2CCc2ccccc21)C(=O)N[C@@H](Cc1c[nH]c2ccccc12)C(=O)O
Q. Of P and Q , which shows the smaller inhibition value? Field: selected label. Fill in the label of the entry you choose.
A. P
(P: 0%, Q: 9%)
